System: A-427
Test summary: relative viability (nuclei count vs DMSO), 5 days (fraction); higher = more cells survive
Condition description: first compound 2.53 µM
Label 1 when relative viability is strictly below 0.6; otherwise label -1.

[
  {
    "Compound": "Nc1cccc2c1CN(C1CCC(=O)NC1=O)C2=O (stereo not given) [Lenalidomide] + N=C(N)NC(=N)NCCc1ccccc1 [Phenformin] (partner 250 µM)",
    "Answer label": 1
  },
  {
    "Compound": "Nc1cccc2c1CN(C1CCC(=O)NC1=O)C2=O (stereo not given) [Lenalidomide] + O=C(CCCCCCC(=O)Nc1ccccc1)NO [Vorinostat] (partner 1 µM)",
    "Answer label": -1
  },
  {
    "Compound": "Nc1cccc2c1CN(C1CCC(=O)NC1=O)C2=O (stereo not given) [Lenalidomide] + Nc1ncn([C@H]2C[C@H](O)[C@@H](CO)O2)c(=O)n1 [Decitabine] (partner 2 µM)",
    "Answer label": -1
  },
  {
    "Compound": "Nc1cccc2c1CN(C1CCC(=O)NC1=O)C2=O (stereo not given) [Lenalidomide] + CC(=O)Nc1cccc(-n2c(=O)n(C3CC3)c(=O)c3c(Nc4ccc(I)cc4F)n(C)c(=O)c(C)c32)c1 [Trametinib] (partner 0.02 µM)",
    "Answer label": -1
  }
]

Now for another entry.
Problem: For the compound Nc1cccc2c1CN(C1CCC(=O)NC1=O)C2=O (stereo not given) [Lenalidomide] + CC(=O)c1c(C)c2cnc(Nc3ccc(N4CCNCC4)cn3)nc2n(C2CCCC2)c1=O [Palbociclib] (partner 0.5 µM) , is relative viability under 0.6?
Result: 1

* * *

Field: relative viability. Provide a value for each of the molecules that follow.
Test system: PC-14
Test summary: relative viability (nuclei count vs DMSO), 5 days (fraction); higher = more cells survive
Condition description: first compound 2 µM

[
  {
    "Molecule": "Cc1csc(=NC2CCCCC2)n1/N=C/c1ccc(O)c(O)c1O [MIM1] + NC(=O)Nc1cc(-c2cccc(F)c2)sc1C(=O)N[C@H]1CCCNC1 [AZD7762] (partner 0.2 µM)",
    "relative viability": 0.288
  },
  {
    "Molecule": "Cc1csc(=NC2CCCCC2)n1/N=C/c1ccc(O)c(O)c1O [MIM1] + CCNC(=O)c1noc(-c2cc(C(C)C)c(O)cc2O)c1-c1ccc(CN2CCOCC2)cc1 [Luminespib] (partner 0.01 µM)",
    "relative viability": 0.17
  }
]

Then this molecule:
Problem: So what does the record say about relative viability for CN1CCN(CCOc2cc(OC3CCOCC3)c3c(Nc4c(Cl)ccc5c4OCO5)ncnc3c2)CC1 [Saracatinib] + COc1cc2c(Oc3ccc(NC(=O)C4(C(=O)Nc5ccc(F)cc5)CC4)cc3F)ccnc2cc1OCCCN1CCOCC1 [Foretinib] (partner 0.25 µM) ?
Result: 0.209

* * *

Field: relative viability. Provide a value for each of the compounds that follow.
Test system: NCI-H1975
Test summary: relative viability (nuclei count vs DMSO), 5 days (fraction); higher = more cells survive
Condition description: first compound 0.8 µM
Answers are plain numbers.

Examples from the recorded data:
[
  {
    "Compound": "Nc1cccc2c1CN(C1CCC(=O)NC1=O)C2=O (stereo not given) [Lenalidomide] + C[C@]1(O)C[C@@H](c2nc(-c3ccc4ccc(-c5ccccc5)nc4c3)c3c(N)nccn32)C1 [Linsitinib] (partner 1 µM)",
    "Value reported": 1
  },
  {
    "Compound": "Nc1cccc2c1CN(C1CCC(=O)NC1=O)C2=O (stereo not given) [Lenalidomide] + COc1cc2c(Oc3ccc(NC(=O)C4(C(=O)Nc5ccc(F)cc5)CC4)cc3F)ccnc2cc1OCCCN1CCOCC1 [Foretinib] (partner 0.25 µM)",
    "Value reported": 0.823
  },
  {
    "Compound": "Nc1cccc2c1CN(C1CCC(=O)NC1=O)C2=O (stereo not given) [Lenalidomide] + CCNC(=O)c1noc(-c2cc(C(C)C)c(O)cc2O)c1-c1ccc(CN2CCOCC2)cc1 [Luminespib] (partner 0.01 µM)",
    "Value reported": 0.235
  }
]

Could you tell me relative viability for each of these compounds? They are listed below.
1. Nc1cccc2c1CN(C1CCC(=O)NC1=O)C2=O (stereo not given) [Lenalidomide] + N=C(N)NC(=N)NCCc1ccccc1 [Phenformin] (partner 250 µM)
2. Nc1cccc2c1CN(C1CCC(=O)NC1=O)C2=O (stereo not given) [Lenalidomide] + CS(=O)(=O)CCNCc1ccc(-c2ccc3ncnc(Nc4ccc(OCc5cccc(F)c5)c(Cl)c4)c3c2)o1 [Lapatinib] (partner 2 µM)

Result:
0.35
0.799

* * *

System: NCI-H647
Test summary: relative viability (nuclei count vs DMSO), 5 days (fraction); higher = more cells survive
Condition description: first compound 0.253 µM
Field: relative viability. Provide a value for each of the compounds that follow.
Answers are plain numbers.

Examples from the recorded data:
[
  {
    "Compound": "Nc1cccc2c1CN(C1CCC(=O)NC1=O)C2=O (stereo not given) [Lenalidomide] + Cc1nc(NC(=O)N2CCC[C@H]2C(N)=O)sc1-c1ccnc(C(C)(C)C(F)(F)F)c1 [Alpelisib] (partner 2 µM)",
    "Value reported": 1.22
  },
  {
    "Compound": "Nc1cccc2c1CN(C1CCC(=O)NC1=O)C2=O (stereo not given) [Lenalidomide] + NC(=O)Nc1cc(-c2cccc(F)c2)sc1C(=O)N[C@H]1CCCNC1 [AZD7762] (partner 0.2 µM)",
    "Value reported": 0.485
  },
  {
    "Compound": "Nc1cccc2c1CN(C1CCC(=O)NC1=O)C2=O (stereo not given) [Lenalidomide] + CS(=O)(=O)N1CCN(Cc2cc3nc(-c4cccc5[nH]ncc45)nc(N4CCOCC4)c3s2)CC1 [Pictilisib] (partner 1 µM)",
    "Value reported": 0.417
  }
]

Could you tell me relative viability for each of these compounds? They are listed below.
1. Nc1cccc2c1CN(C1CCC(=O)NC1=O)C2=O (stereo not given) [Lenalidomide] + N=C(N)NC(=N)NCCc1ccccc1 [Phenformin] (partner 250 µM)
2. Nc1cccc2c1CN(C1CCC(=O)NC1=O)C2=O (stereo not given) [Lenalidomide] + O=C(CCCCCCC(=O)Nc1ccccc1)NO [Vorinostat] (partner 1 µM)

Result:
1: 0.438; 2: 0.415

* * *

Tested on: NCI-H1437
Test summary: relative viability (nuclei count vs DMSO), 5 days (fraction); higher = more cells survive
Condition description: first compound 0.6325 µM
Label class 1 when relative viability is strictly below 0.5; otherwise label class 0.

[
  {
    "Compound": "CN1CCN(CCOc2cc(OC3CCOCC3)c3c(Nc4c(Cl)ccc5c4OCO5)ncnc3c2)CC1 [Saracatinib] + N=C(N)NC(=N)NCCc1ccccc1 [Phenformin] (partner 250 µM)",
    "Answer label": "class 1"
  },
  {
    "Compound": "CN1CCN(CCOc2cc(OC3CCOCC3)c3c(Nc4c(Cl)ccc5c4OCO5)ncnc3c2)CC1 [Saracatinib] + O=C(CCCCCCC(=O)Nc1ccccc1)NO [Vorinostat] (partner 1 µM)",
    "Answer label": "class 0"
  },
  {
    "Compound": "Cc1csc(=NC2CCCCC2)n1/N=C/c1ccc(O)c(O)c1O [MIM1] + Cc1cc(Nc2cc(N3CCN(C)CC3)nc(Sc3ccc(NC(=O)C4CC4)cc3)n2)n[nH]1 [Tozasertib] (partner 0.1 µM)",
    "Answer label": "class 1"
  },
  {
    "Compound": "Cc1csc(=NC2CCCCC2)n1/N=C/c1ccc(O)c(O)c1O [MIM1] + Cc1nc(Nc2ncc(C(=O)Nc3c(C)cccc3Cl)s2)cc(N2CCN(CCO)CC2)n1 [Dasatinib] (partner 0.075 µM)",
    "Answer label": "class 1"
  },
  {
    "Compound": "CN1CCN(CCOc2cc(OC3CCOCC3)c3c(Nc4c(Cl)ccc5c4OCO5)ncnc3c2)CC1 [Saracatinib] + O=C(c1cc(Cc2n[nH]c(=O)c3ccccc23)ccc1F)N1CCN(C(=O)C2CC2)CC1 [Olaparib] (partner 8 µM)",
    "Answer label": "class 0"
  },
  {
    "Compound": "CN1CCN(CCOc2cc(OC3CCOCC3)c3c(Nc4c(Cl)ccc5c4OCO5)ncnc3c2)CC1 [Saracatinib] + CC(C)C[C@H](NC(=O)[C@H](Cc1ccccc1)NC(=O)c1cnccn1)B(O)O [Bortezomib] (partner 0.002 µM)",
    "Answer label": "class 1"
  }
]

Problem: For the compound CN1CCN(CCOc2cc(OC3CCOCC3)c3c(Nc4c(Cl)ccc5c4OCO5)ncnc3c2)CC1 [Saracatinib] + Cc1nc(NC(=O)N2CCC[C@H]2C(N)=O)sc1-c1ccnc(C(C)(C)C(F)(F)F)c1 [Alpelisib] (partner 2 µM) , is relative viability under 0.5?
Result: class 0

Problem: For the compound Cc1csc(=NC2CCCCC2)n1/N=C/c1ccc(O)c(O)c1O [MIM1] + COc1cc2c(Oc3ccc(NC(=O)C4(C(=O)Nc5ccc(F)cc5)CC4)cc3F)ccnc2cc1OCCCN1CCOCC1 [Foretinib] (partner 0.25 µM) , is relative viability under 0.5?
Result: class 0

Problem: For the compound Cc1csc(=NC2CCCCC2)n1/N=C/c1ccc(O)c(O)c1O [MIM1] + O=C(c1cc(Cc2n[nH]c(=O)c3ccccc23)ccc1F)N1CCN(C(=O)C2CC2)CC1 [Olaparib] (partner 8 µM) , is relative viability under 0.5?
Result: class 0

Problem: For the compound CN1CCN(CCOc2cc(OC3CCOCC3)c3c(Nc4c(Cl)ccc5c4OCO5)ncnc3c2)CC1 [Saracatinib] + NC(=O)Nc1cc(-c2cccc(F)c2)sc1C(=O)N[C@H]1CCCNC1 [AZD7762] (partner 0.2 µM) , is relative viability under 0.5?
Result: class 0

Problem: For the compound CN1CCN(CCOc2cc(OC3CCOCC3)c3c(Nc4c(Cl)ccc5c4OCO5)ncnc3c2)CC1 [Saracatinib] + C[C@@H](Oc1cc(-c2cnn(C3CCNCC3)c2)cnc1N)c1c(Cl)ccc(F)c1Cl [Crizotinib] (partner 1 µM) , is relative viability under 0.5?
Result: class 0

Problem: For the compound Cc1csc(=NC2CCCCC2)n1/N=C/c1ccc(O)c(O)c1O [MIM1] + CC(=O)Nc1cccc(-n2c(=O)n(C3CC3)c(=O)c3c(Nc4ccc(I)cc4F)n(C)c(=O)c(C)c32)c1 [Trametinib] (partner 0.02 µM) , is relative viability under 0.5?
Result: class 1
